molecular target: human vasopressin V2 receptor subtype (Homo sapiens, UniProt P30518); construct: host or cells: CHO cells, stably transfected (pZeoSV vector); experiment: Vasopressin binding in CHO cell membranes expressing human vasopressin V2 subtype receptors ([3H]arginine vasopressin radioligand binding); conditions: 100 nM
Sequence (P30518 whole entry): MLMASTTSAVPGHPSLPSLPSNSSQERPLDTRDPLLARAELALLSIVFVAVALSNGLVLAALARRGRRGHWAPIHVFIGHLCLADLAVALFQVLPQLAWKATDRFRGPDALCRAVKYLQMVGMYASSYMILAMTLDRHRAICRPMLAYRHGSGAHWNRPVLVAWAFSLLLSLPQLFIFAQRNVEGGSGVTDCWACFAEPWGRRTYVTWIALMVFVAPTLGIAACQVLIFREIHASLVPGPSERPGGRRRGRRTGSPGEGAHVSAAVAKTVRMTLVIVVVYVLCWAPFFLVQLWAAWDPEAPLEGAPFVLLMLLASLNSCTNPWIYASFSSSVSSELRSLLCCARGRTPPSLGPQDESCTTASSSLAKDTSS
Parameter: inhibition at 0.1 µM (%)
Write the answer as a number in %, unit excluded.

Example results:
Compound: O=C(c1ccc2n1Cc1ccccc1N(C(=O)c1ccc(-c3cccc4ccccc34)cc1Cl)C2)N1CCN(c2ccccn2)CC1 [Example 86]
inhibition at 0.1 µM, %: 11

Compound: COc1cc(-c2ccccc2C)c(Cl)cc1C(=O)N1Cc2ccc(C(=O)N(C)Cc3cccnc3)n2Cc2ccccc21 [Example 107]
inhibition at 0.1 µM, %: 30

Compound: COc1cccc(-c2cc(OC)c(C(=O)N3Cc4ccc(C(=O)NCc5cccnc5)n4Cc4ccccc43)cc2Cl)c1 [Example 43]
inhibition at 0.1 µM, %: 7

Compound: COc1ccccc1-c1ccc(C(=O)N2Cc3ccc(C(=O)N(C)Cc4cccnc4)n3Cc3ccccc32)cc1 [Example 104]
inhibition at 0.1 µM, %: 23

Compound: COc1cc(C(=O)N2Cc3ccc(C(=O)N4CCN(c5ccncc5)CC4)n3Cc3ccccc32)ccc1-n1c(C)ccc1C [Example 146]
inhibition at 0.1 µM, %: 15

Compound: COc1cc(-c2ccccc2C)c(Cl)cc1C(=O)N1Cc2ccc(C(=O)NCc3cccnc3)n2Cc2ccccc21 [Example 42]
inhibition at 0.1 µM, %: 8

The compound COc1cccc(-c2cc(OC)c(C(=O)N3Cc4ccc(C(=O)N(C)CCc5ccncc5)n4Cc4ccccc43)cc2Cl)c1 [Example 133] showed inhibition at 0.1 µM equal to 15

* * *

Item-by-item account of IC50
Target: human oxytocin receptor (Homo sapiens, UniProt P30559)
Sequence (P30559 1-389): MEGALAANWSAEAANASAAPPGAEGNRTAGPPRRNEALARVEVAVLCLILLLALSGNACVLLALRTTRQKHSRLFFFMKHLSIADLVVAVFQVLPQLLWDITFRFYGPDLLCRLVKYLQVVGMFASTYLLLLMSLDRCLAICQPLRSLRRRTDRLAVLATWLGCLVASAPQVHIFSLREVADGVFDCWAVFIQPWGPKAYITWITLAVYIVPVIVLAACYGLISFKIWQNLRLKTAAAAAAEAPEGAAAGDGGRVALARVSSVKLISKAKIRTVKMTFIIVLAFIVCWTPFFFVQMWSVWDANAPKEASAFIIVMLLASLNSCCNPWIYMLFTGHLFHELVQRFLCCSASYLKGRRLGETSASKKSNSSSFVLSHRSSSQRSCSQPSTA
Write the answer as a number in nM, unit excluded.

Example results:
Smiles Text: Cc1cc(C(=O)N2Cc3ccc(C(=O)N4CCN(Cc5ccc[n+]([O-])c5)CC4)n3Cc3ccccc32)ccc1-c1ccccc1C(F)(F)F
Value Unit: nM
Measured Result: 16.8
//
Smiles Text: Cc1cc(C(=O)N2Cc3ccc(C(=O)N4CCN(c5ccncc5)CC4)n3Cc3ccccc32)ccc1-c1ccccc1C(F)(F)F
Value Unit: nM
Measured Result: 11.2

# evaluate next
The molecule COc1ccccc1-c1ccc(C(=O)N2Cc3ccc(C(=O)N4CCN(c5ccncc5)CC4)n3Cc3ccccc32)cc1C showed IC50 equal to 10.8

* * *

biological target: human vasopressin V1a receptor subtype (Homo sapiens); construct: host or cells: CHO cells, stably transfected (pZeoSV vector for the Thibonnier line); test: Vasopressin binding in CHO cell membranes expressing human vasopressin V1a subtype receptors ([3H]Manning ligand radioligand binding); settings: 100 nM
Sequence (P37288 whole entry): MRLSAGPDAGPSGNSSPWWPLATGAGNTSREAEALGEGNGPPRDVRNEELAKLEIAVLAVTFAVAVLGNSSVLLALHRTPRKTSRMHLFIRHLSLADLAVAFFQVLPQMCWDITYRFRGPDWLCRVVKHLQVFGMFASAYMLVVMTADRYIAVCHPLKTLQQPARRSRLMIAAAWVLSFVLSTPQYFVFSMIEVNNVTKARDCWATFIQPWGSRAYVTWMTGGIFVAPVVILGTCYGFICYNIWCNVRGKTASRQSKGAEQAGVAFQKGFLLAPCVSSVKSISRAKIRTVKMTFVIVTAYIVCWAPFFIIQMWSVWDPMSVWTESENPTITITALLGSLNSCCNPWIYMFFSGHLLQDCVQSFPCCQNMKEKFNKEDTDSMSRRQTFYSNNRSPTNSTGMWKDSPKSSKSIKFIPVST
Parameter: inhibition at 0.1 µM (%)
Write the answer as a number in %, unit excluded.

Example results:
Smiles Text: Cc1ccccc1-c1ccc(C(=O)N2Cc3ccc(C(=O)NCCc4ccccn4)n3Cc3ccccc32)cc1C
inhibition at 0.1 µM / %: 26
//
Smiles Text: COc1cccc(-c2ccc(C(=O)N3Cc4ccc(C(=O)NCc5ccncc5)n4Cc4ccccc43)cc2C)c1
inhibition at 0.1 µM / %: 14
//
Smiles Text: COc1cccc(-c2ccc(C(=O)N3Cc4ccc(C(=O)NCCc5ccccn5)n4Cc4ccccc43)cc2C)c1
inhibition at 0.1 µM / %: 2
//
Smiles Text: COc1cccc(-c2ccc(C(=O)N3Cc4ccc(C(=O)N5CCN(c6ccncc6)CC5)n4Cc4ccccc43)cc2C)c1
inhibition at 0.1 µM / %: 22

The compound Cc1ccccc1-c1ccc(C(=O)N2Cc3ccc(C(=O)NCc4ccncc4)n3Cc3ccccc32)cc1C showed inhibition at 0.1 µM equal to 29

The compound COc1cccc(-c2cc(OC)c(C(=O)N3Cc4ccc(C(=O)NCc5ccccn5)n4Cc4ccccc43)cc2Cl)c1 showed inhibition at 0.1 µM equal to -7

The compound COc1ccccc1-c1ccc(C(=O)N2Cc3ccc(C(=O)N4CCN(c5ccccn5)CC4)n3Cc3ccccc32)cc1C showed inhibition at 0.1 µM equal to -1

The compound COc1ccccc1-c1ccc(C(=O)N2Cc3ccc(C(=O)NCCc4ccccn4)n3Cc3ccccc32)cc1OC showed inhibition at 0.1 µM equal to 9

The compound COc1cc(C(=O)N2Cc3ccc(C(=O)NCc4ccncc4)n3Cc3ccccc32)ccc1-c1cccc2ccccc12 showed inhibition at 0.1 µM equal to 7

The compound COc1cccc(-c2ccc(C(=O)N3Cc4ccc(C(=O)NCc5cccnc5)n4Cc4ccccc43)cc2OC)c1 showed inhibition at 0.1 µM equal to 7

The compound COc1cccc(-c2cc(OC)c(C(=O)N3Cc4ccc(C(=O)NCCc5ccccn5)n4Cc4ccccc43)cc2Cl)c1 showed inhibition at 0.1 µM equal to -11
